Recorded values, source ChEMBL document CHEMBL1201862.

# System: SNB-19
# assay-notes: NCI tumour cell line growth inhibition, 48 h
Activity calls are given as the source filed them. Cut-off read from the data, not from the text of the source: active = GI50 up to about 1.1 µM and inactive = higher.
GI50 by entry:

# annotated cases, reported GI50 shown
{"compound": "Clc1ccc2c(NCCNc3ccnc4cc(Cl)ccc34)ccnc2c1", "measured-on": "SNB-19", "GI50": "20.1 µM (inactive)"}
{"compound": "C=C[C@H]1CN2CCc3c([nH]c4c([C@@H]5CCCN5C)c(O)ccc34)[C@@H]2C[C@@H]1C[C@H]1c2[nH]c3ccccc3c2CCN1C", "measured-on": "SNB-19", "GI50": "1.3 µM (inactive)"}
{"compound": "CCNC(=O)Cc1nc2c(O)ncnc2n1C1OC(CO)C(O)C1O (stereo not given)", "measured-on": "SNB-19", "GI50": "> 100 µM (inactive)"}
{"compound": "Cc1cc(C)c(N[S+]([O-])c2cccc([N+](=O)[O-])c2)c(C)c1 (stereo not given)", "measured-on": "SNB-19", "GI50": "> 100 µM (inactive)"}

Now consider a different compound.
Asked: Fill in the blank: the reported GI50 of Cn1c(=O)n2n(c1=O)Cc1cccc3cccc(c13)C2 is ____.
Given back: > 100 µM (inactive)
